# experimental-target: KACh channel (Rattus norvegicus, UniProt P48548+P63251)
# Sequence (P63251 whole entry): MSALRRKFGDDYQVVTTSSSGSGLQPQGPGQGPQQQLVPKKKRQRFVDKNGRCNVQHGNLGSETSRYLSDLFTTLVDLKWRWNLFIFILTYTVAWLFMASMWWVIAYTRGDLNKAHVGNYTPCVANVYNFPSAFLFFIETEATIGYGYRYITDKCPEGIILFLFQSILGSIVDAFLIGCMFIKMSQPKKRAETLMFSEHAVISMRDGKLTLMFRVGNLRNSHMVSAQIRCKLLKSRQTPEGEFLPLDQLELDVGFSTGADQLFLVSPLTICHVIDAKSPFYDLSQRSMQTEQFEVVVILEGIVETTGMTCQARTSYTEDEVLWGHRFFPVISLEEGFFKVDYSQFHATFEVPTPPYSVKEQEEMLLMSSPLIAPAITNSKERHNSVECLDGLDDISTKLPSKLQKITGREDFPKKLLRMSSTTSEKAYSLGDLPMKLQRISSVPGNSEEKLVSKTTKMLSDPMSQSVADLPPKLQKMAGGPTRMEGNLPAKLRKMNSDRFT
# Sequence (P48548 whole entry): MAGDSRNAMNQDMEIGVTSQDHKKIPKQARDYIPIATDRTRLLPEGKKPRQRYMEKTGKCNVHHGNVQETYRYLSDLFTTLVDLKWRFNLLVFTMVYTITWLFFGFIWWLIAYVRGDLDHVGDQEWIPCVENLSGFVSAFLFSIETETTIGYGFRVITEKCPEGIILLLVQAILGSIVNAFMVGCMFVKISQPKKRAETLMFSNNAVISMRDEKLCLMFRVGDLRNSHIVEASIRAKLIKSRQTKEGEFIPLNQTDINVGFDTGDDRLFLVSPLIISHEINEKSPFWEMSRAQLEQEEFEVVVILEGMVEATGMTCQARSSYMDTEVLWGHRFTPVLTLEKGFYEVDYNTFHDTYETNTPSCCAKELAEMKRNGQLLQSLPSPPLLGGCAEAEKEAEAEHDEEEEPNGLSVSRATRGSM
# Format: cell-based
# run-parameters: K 1/2 for inhibition, pipette solution 210 mM K+; n = 3
observation-type: IC50 (nM)
Express your answer in nM, writing the number without its unit.

Request: Could you tell me which IC50 is on file for CCCCC/C=C\C/C=C\CCCCCCCC(=O)O [Linoleic acid [18:2 (n-6)], Linoleic acid] ?
Response: 1700

----------
Catalogue of log10 of IC50 values
# experimental-target: KACh channel (Rattus norvegicus, UniProt P48548+P63251)
# Format: cell-based
# run-parameters: K 1/2 (effect on ATP-dependent gating of KACh channel), atrial inside-out patches, 100 μM GTP and 4 mM ATP; lipid 0.1, 1, 3, 10 and 30 μM; n = 3 each
Form field - Quantity: IC50; Unit: µM; Scale: log10

Sample answers from the record:
INSERT INTO assay_data (compound, numeric_result) VALUES
  ('CCCCCCCC/C=C\CCCCCCCC(=O)OCC(O)CO (centres unmarked)', 1.62),
  ('CCCCC/C=C\C/C=C\CCCCCCCC(=O)OCC(O)CO (centres unmarked)', 0.92),
  ('CCCCCCCC/C=C\CCCCCCCC(=O)OC(CO)CO', 1.68),
  ('CCCCCC/C=C\CCCCCCCC(=O)O [Palmitoleic acid [16:1 (n-7)], Palmitoleic acid]', 1.02);

Request: Entry CCCCCC/C=C\CCCCCCCC(=O)OCC(O)CO (centres unmarked) has what log10 of IC50?
Response: 1.72

Request: Which log10 of IC50 is listed for CCCCCCCC/C=C\CCCCCCCC(=O)OCC(CO)OC(=O)CCCCCCC/C=C\CCCCCCCC (centres unmarked) ?
Response: 1.32

Request: Sample CCCCCCCC/C=C\CCCCCCCC(=O)O [Oleic acid [18:1 (n-9)], Oleic acid] — what was its log10 of IC50?
Response: 0.18

Request: So what does the record say about log10 of IC50 for CCCCC/C=C\C/C=C\CCCCCCCC(=O)O [Linoleic acid [18:2 (n-6)], Linoleic acid] ?
Response: 0.08

Attribution: paper PMC2217204
